Record form. Attribute: kcat/Km. Fill in for each entry.
- Substrate: c1ccc([C@@H]2CO2)cc1
- METHOD DESCRIPTION: purified protein
- Format: biochemical, Phanerodontia chrysosporium
- EXPERIMENTAL CONDITIONS: 10-80 mM SO, 37 °C, buffer pH 8.0
Form entry: value (M⁻¹ s⁻¹) — number only.

For the protein PchEHA (epoxide hydrolase) (Phanerodontia chrysosporium; E251G/Y163H) (protein, catalytic triad D105/H308/D277) MDASLFKDFKTSRGFNYHYFYSPAKGPRPTLFFLHGNPSVATDWAQIVPHFTSRGYGVLAPDMLGYGDTDKPTDPALYVSSGMCRNLVDLLDHEGLEKVIAIGHDWGCLSVSRLASYYPERVIAYAFLAASFIGPIPPIPFDAFLEYIKQQVGYELYGYWKFHSEPGLDQFVRDHLDTFLSILWPSDPAVWKTRLAPTGALKQSALEGWTAPLAPYITEEFKKHHVEVFNKNGFEAPACYYRIMTSGLQAGDDKQILPERAVPPKDAPVFFGAANKDYICIPALAYATFKKDEWKDHKITIKEYDADHWLILSHADQVSRDLEAWIEGFASGGQ , report kcat/Km. 166000

For the protein PchEHA (epoxide hydrolase) (Phanerodontia chrysosporium; A24T/E251G) (protein, catalytic triad D105/H308/D277) MDASLFKDFKTSRGFNYHYFYSPTKGPRPTLFFLHGNPSVATDWAQIVPHFTSRGYGVLAPDMLGYGDTDKPTDPALYVSSGMCRNLVDLLDHEGLEKVIAIGHDWGCLSVSRLASYYPERVIAYAFLAASFIGPIPPIPFDAFLEYIKQQVGYELYGYWKFYSEPGLDQFVRDHLDTFLSILWPSDPAVWKTRLAPTGALKQSALEGWTAPLAPYITEEFKKHHVEVFNKNGFEAPACYYRIMTSGLQAGDDKQILPERAVPPKDAPVFFGAANKDYICIPALAYATFKKDEWKDHKITIKEYDADHWLILSHADQVSRDLEAWIEGFASGGQ , report kcat/Km. 63100

For the protein PchEHA (epoxide hydrolase) (Phanerodontia chrysosporium; G14A/K291R/Y163H) (protein, catalytic triad D105/H308/D277) MDASLFKDFKTSRAFNYHYFYSPAKGPRPTLFFLHGNPSVATDWAQIVPHFTSRGYGVLAPDMLGYGDTDKPTDPALYVSSGMCRNLVDLLDHEGLEKVIAIGHDWGCLSVSRLASYYPERVIAYAFLAASFIGPIPPIPFDAFLEYIKQQVGYELYGYWKFHSEPGLDQFVRDHLDTFLSILWPSDPAVWKTRLAPTGALKQSALEGWTAPLAPYITEEFKKHHVEVFNKNGFEAPACYYRIMTSGLQAEDDKQILPERAVPPKDAPVFFGAANKDYICIPALAYATFKRDEWKDHKITIKEYDADHWLILSHADQVSRDLEAWIEGFASGGQ , report kcat/Km. 122000

For the protein PchEHA (epoxide hydrolase) (Phanerodontia chrysosporium; C108S/G14A/K291R) (protein, catalytic triad D105/H308/D277) MDASLFKDFKTSRAFNYHYFYSPAKGPRPTLFFLHGNPSVATDWAQIVPHFTSRGYGVLAPDMLGYGDTDKPTDPALYVSSGMCRNLVDLLDHEGLEKVIAIGHDWGSLSVSRLASYYPERVIAYAFLAASFIGPIPPIPFDAFLEYIKQQVGYELYGYWKFYSEPGLDQFVRDHLDTFLSILWPSDPAVWKTRLAPTGALKQSALEGWTAPLAPYITEEFKKHHVEVFNKNGFEAPACYYRIMTSGLQAEDDKQILPERAVPPKDAPVFFGAANKDYICIPALAYATFKRDEWKDHKITIKEYDADHWLILSHADQVSRDLEAWIEGFASGGQ , report kcat/Km. 139000

For the protein PchEHA (epoxide hydrolase) (Phanerodontia chrysosporium; E251G/G14A/K291R) (protein, catalytic triad D105/H308/D277) MDASLFKDFKTSRAFNYHYFYSPAKGPRPTLFFLHGNPSVATDWAQIVPHFTSRGYGVLAPDMLGYGDTDKPTDPALYVSSGMCRNLVDLLDHEGLEKVIAIGHDWGCLSVSRLASYYPERVIAYAFLAASFIGPIPPIPFDAFLEYIKQQVGYELYGYWKFYSEPGLDQFVRDHLDTFLSILWPSDPAVWKTRLAPTGALKQSALEGWTAPLAPYITEEFKKHHVEVFNKNGFEAPACYYRIMTSGLQAGDDKQILPERAVPPKDAPVFFGAANKDYICIPALAYATFKRDEWKDHKITIKEYDADHWLILSHADQVSRDLEAWIEGFASGGQ , report kcat/Km. 99600

For the protein PchEHA (epoxide hydrolase) (Phanerodontia chrysosporium) (protein, catalytic triad D105/H308/D277) MDASLFKDFKTSRGFNYHYFYSPAKGPRPTLFFLHGNPSVATDWAQIVPHFTSRGYGVLAPDMLGYGDTDKPTDPALYVSSGMCRNLVDLLDHEGLEKVIAIGHDWGCLSVSRLASYYPERVIAYAFLAASFIGPIPPIPFDAFLEYIKQQVGYELYGYWKFYSEPGLDQFVRDHLDTFLSILWPSDPAVWKTRLAPTGALKQSALEGWTAPLAPYITEEFKKHHVEVFNKNGFEAPACYYRIMTSGLQAEDDKQILPERAVPPKDAPVFFGAANKDYICIPALAYATFKKDEWKDHKITIKEYDADHWLILSHADQVSRDLEAWIEGFASGGQ , report kcat/Km. 67500
